# target: delta receptors (Cavia porcellus, UniProt A0A286XTF2)
# Construct: The brains were then homogenized in 50 mM Tris HCl, buffer pH 7.7, using a Polytron; from tissue; host or cells: guinea pig brain homogenate (membrane pellet)
# Sequence (A0A286XTF2 1-366): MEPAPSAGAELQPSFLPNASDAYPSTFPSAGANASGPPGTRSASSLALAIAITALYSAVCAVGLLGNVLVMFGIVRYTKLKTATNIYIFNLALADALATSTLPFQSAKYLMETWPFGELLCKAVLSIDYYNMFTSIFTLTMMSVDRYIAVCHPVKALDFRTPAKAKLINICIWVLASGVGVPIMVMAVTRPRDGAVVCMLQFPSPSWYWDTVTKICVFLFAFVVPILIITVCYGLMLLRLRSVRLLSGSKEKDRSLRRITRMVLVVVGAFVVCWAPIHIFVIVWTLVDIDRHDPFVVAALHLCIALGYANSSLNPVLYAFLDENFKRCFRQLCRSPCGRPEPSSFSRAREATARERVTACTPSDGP
# experimentNotes: biochemical
# Assay type: binding, guinea pig
# measurementSetup: read-out: Ki δ, experiment done with [^3H]DPDPE
pKi: −log10 of the molar value. Structures can show the parent of a compound that is named as a salt.
measurementType: pKi

compound="CCCN1CCCC(c2cccc(O)c2)C1 (single isomer, unassigned; (+)) [(+) 3-PPP-HCl]" recordedmeasurement="< 5.00"
compound="c1ccc(C2(N3CCCCC3)CCCCC2)cc1 [PCP-HCl]" recordedmeasurement="< 5.00"
compound="C=CCN1CC[C@@]2(C)c3cc(O)ccc3C[C@@H]1[C@@H]2C [(+) SKF 10,047-HCl]" recordedmeasurement="< 5.00"

---

# System: electrically stimulated guinea pig ileum
# experimentNotes: tissue or blood
# Format: cell-based
# measurementSetup: read-out: Guinea Pig Ileum IC50
pIC50: −log10 of the molar value.
measurementType: pIC50

compound="C[C@@H](NC(=O)[C@@H](N)Cc1ccc(O)cc1)C(=O)NCC(=O)N(C)[C@@H](Cc1ccccc1)C(=O)NCCO [DAMGO, [D-Ala^2,N-Me-Phe^4,Gly-ol^5]-enkephalin]" target="electrically stimulated guinea pig ileum" measurementtype=pIC50 recordedmeasurement=8.08
compound="C=CCN1CC[C@@]2(C)c3cc(O)ccc3CC1[C@@H]2C.Cl (single isomer, unassigned; (-)) [(−) SKF 10,047-HCl]" target="electrically stimulated guinea pig ileum" measurementtype=pIC50 recordedmeasurement=7.98
compound=CC(C)C[C@@H](NC(=O)[C@H](Cc1ccccc1)NC(=O)CNC(=O)[C@@H](C)NC(=O)[C@@H](N)Cc1ccc(O)cc1)C(=O)O target="electrically stimulated guinea pig ileum" measurementtype=pIC50 recordedmeasurement=7.87

---

# target: kappa3 receptors
# measurementSetup: read-out: Ki κ3 [^3H]NalBzoH
pKi: −log10 of the molar value. Where a name gives a salt, the structure may show the parent alone.
Please mark criterion met if the recorded pKi is equal to or greater than 8, and criterion not met if it falls below.

molecule="c1csc(C2(N3CCCCC3)CCCCC2)c1 [TCP-HCl]" target="kappa3 receptors" category="criterion not met"
molecule="CCCN1CCCC(c2cccc(O)c2)C1 (single isomer, unassigned; (+)) [(+) 3-PPP-HCl]" target="kappa3 receptors" category="criterion not met"
molecule="CC(=O)Oc1ccc2c3c1O[C@H]1[C@@H](OS(=O)(=O)O)C=C[C@H]4[C@@H](C2)N(C)CC[C@@]341 [NIDA # 20,264, 3-O-Acetylmorphine-6-O-sulfate]" target="kappa3 receptors" category="criterion met"
molecule="CC[C@@]12CCN(CC3CC3)C(C(=O)c3ccc(O)cc31)[C@@H]2C (single isomer, unassigned; (-)) [(−)EKC]" target="kappa3 receptors" category="criterion met"
molecule="CCC12CCN(CC3(O)CC3)C(Cc3ccc(O)cc31)C2(C)C (single isomer, unassigned; (-)) [(−)Bremazocine]" target="kappa3 receptors" category="criterion met"

---

# target: kappa receptors (Cavia porcellus, UniProt P41144)
# Construct: The longitudinal muscle with the myenteric plexus attached was gently separated from the underlying circular muscle; from tissue; host or cells: guinea pig ileum longitudinal muscle with myenteric plexus
# Sequence (P41144 whole entry): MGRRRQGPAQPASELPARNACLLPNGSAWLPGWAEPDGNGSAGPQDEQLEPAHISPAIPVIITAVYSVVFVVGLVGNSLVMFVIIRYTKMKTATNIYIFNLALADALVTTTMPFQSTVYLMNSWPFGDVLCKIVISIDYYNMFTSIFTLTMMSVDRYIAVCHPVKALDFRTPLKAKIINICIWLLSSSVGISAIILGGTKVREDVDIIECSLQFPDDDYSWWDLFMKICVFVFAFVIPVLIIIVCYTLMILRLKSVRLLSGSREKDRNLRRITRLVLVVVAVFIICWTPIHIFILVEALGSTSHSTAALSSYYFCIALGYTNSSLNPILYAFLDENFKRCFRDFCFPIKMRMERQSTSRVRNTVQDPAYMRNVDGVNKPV
# Assay type: cell-based, guinea pig
measurementType: Guinea Pig Ileum DR with Nor-BNI

compound=Oc1ccc2c3c1O[C@H]1[C@@H](O)C=C[C@H]4[C@@H](C2)NCC[C@@]341 recordedmeasurement=1.90
compound="C[C@@H](NC(=O)[C@@H](N)Cc1ccc(O)cc1)C(=O)NCC(=O)N(C)[C@@H](Cc1ccccc1)C(=O)NCCO [DAMGO, [D-Ala^2,N-Me-Phe^4,Gly-ol^5]-enkephalin]" recordedmeasurement=1.74
compound="CN1CC[C@]23c4c5ccc(OC(=O)c6ccccc6)c4O[C@H]2[C@@H](OS(=O)(=O)O)C=C[C@H]3[C@H]1C5 [NIDA # 20,273, 3-O-Benzoylmorphine-6-O-sulfate]" recordedmeasurement=1.31
compound="CN1CC[C@]23c4c5ccc(OC(=O)C(C)(C)C)c4O[C@H]2[C@@H](OS(=O)(=O)O)C=C[C@H]3[C@H]1C5 [NIDA # 20,272, 3-O-Pivaloylmorphine-6-O-sulfate]" recordedmeasurement=1.13
compound=C=CCN1CC[C@]23c4c5ccc(O)c4O[C@H]2[C@@H](O)C=C[C@H]3[C@H]1C5 recordedmeasurement=643.9
compound="CC(=O)Oc1ccc2c3c1O[C@H]1[C@@H](OS(=O)(=O)O)C=C[C@H]4[C@@H](C2)N(C)CC[C@@]341 [NIDA # 20,264, 3-O-Acetylmorphine-6-O-sulfate]" recordedmeasurement=1.39

---

# target: kappa3 receptors
# measurementSetup: read-out: Ki κ3 [^3H]NalBzoH
pKi: −log10 of the molar value. Where a name gives a salt, the structure may show the parent alone.
Please mark t if the recorded pKi is equal to or greater than 8, and f if it falls below.

compound="O=C1CC[C@@]2(O)[C@H]3Cc4ccc(O)c5c4[C@@]2(CCN3CC2CC2)[C@H]1O5 [Naltrexone-HCl]" category=t
compound=CC(=O)Oc1ccc2c3c1O[C@H]1[C@@H](OS(=O)(=O)[O-])C=C[C@H]4[C@@H](C2)[N+](C)(C)CC[C@@]341 category=f
compound="CC(C)C(=O)Oc1ccc2c3c1O[C@H]1[C@@H](OS(=O)(=O)O)C=C[C@H]4[C@@H](C2)N(C)CC[C@@]341 [NIDA # 20,271, 3-O-Isobutyrylmorphine-6-O-sulfate]" category=f
compound=CC(C)C[C@@H](NC(=O)[C@H](Cc1ccccc1)NC(=O)CNC(=O)[C@@H](C)NC(=O)[C@@H](N)Cc1ccc(O)cc1)C(=O)O category=f
compound=C[N+]1(C)CC[C@]23c4c5ccc(OC(=O)c6ccccc6)c4O[C@H]2[C@@H](OS(=O)(=O)[O-])C=C[C@H]3[C@H]1C5 category=f
compound="CCC12CCN(CC3(O)CC3)C(Cc3ccc(O)cc31)C2(C)C (single isomer, unassigned; (+)) [(+)Bremazocine]" category=t

---

# target: mu opioid receptors (Cavia porcellus, UniProt A0ACM8Q262)
# Sequence (A0ACM8Q262 1-400): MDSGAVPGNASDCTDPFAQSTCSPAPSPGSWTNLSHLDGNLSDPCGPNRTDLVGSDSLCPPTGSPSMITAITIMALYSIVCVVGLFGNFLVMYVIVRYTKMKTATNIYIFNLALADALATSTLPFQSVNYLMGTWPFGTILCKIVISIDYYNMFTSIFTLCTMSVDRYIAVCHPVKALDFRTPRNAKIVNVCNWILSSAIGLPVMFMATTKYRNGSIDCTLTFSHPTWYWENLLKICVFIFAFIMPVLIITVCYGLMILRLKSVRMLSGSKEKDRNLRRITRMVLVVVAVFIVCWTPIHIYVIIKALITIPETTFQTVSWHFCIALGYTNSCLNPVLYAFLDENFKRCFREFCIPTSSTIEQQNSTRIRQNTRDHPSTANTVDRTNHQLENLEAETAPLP
pKi: −log10 of the molar value. Where a name gives a salt, the structure may show the parent alone.
Please mark criterion met if the recorded pKi is equal to or greater than 9, and criterion not met if it falls below.

compound="CC1C2Cc3ccc(O)cc3C1(C)CCN2CC1CC1 (single isomer, unassigned; (+)) [(+) Cyclazocine]" target="mu opioid receptors (Cavia porcellus, UniProt A0ACM8Q262)" category="criterion not met"
compound="CCCN1CCCC(c2cccc(O)c2)C1 (single isomer, unassigned; (+)) [(+) 3-PPP-HCl]" target="mu opioid receptors (Cavia porcellus, UniProt A0ACM8Q262)" category="criterion not met"
compound="c1ccc(C2(N3CCCCC3)CCCCC2)cc1 [PCP-HCl]" target="mu opioid receptors (Cavia porcellus, UniProt A0ACM8Q262)" category="criterion not met"
compound="COC(=O)/C=C/C(=O)N[C@@H]1CC[C@@]2(O)[C@H]3Cc4ccc(O)c5c4[C@@]2(CCN3CC2CC2)[C@H]1O5 [β-FNA-HCl]" target="mu opioid receptors (Cavia porcellus, UniProt A0ACM8Q262)" category="criterion met"
compound="CC[C@@]12CCN(CC3CC3)C(C(=O)c3ccc(O)cc31)[C@@H]2C (single isomer, unassigned; (-)) [(−)EKC]" target="mu opioid receptors (Cavia porcellus, UniProt A0ACM8Q262)" category="criterion met"
compound="Oc1ccc2c3c1O[C@H]1c4oc5ccccc5c4C[C@@]4(O)[C@@H](C2)N(CC2CC2)CC[C@]314 [NTB]" target="mu opioid receptors (Cavia porcellus, UniProt A0ACM8Q262)" category="criterion not met"
compound="c1csc(C2(N3CCCCC3)CCCCC2)c1 [TCP-HCl]" target="mu opioid receptors (Cavia porcellus, UniProt A0ACM8Q262)" category="criterion not met"
compound="C=CCN1CC[C@@]2(C)c3cc(O)ccc3C[C@@H]1[C@@H]2C [(+) SKF 10,047-HCl]" target="mu opioid receptors (Cavia porcellus, UniProt A0ACM8Q262)" category="criterion not met"
compound="CCC12CCN(CC3(O)CC3)C(Cc3ccc(O)cc31)C2(C)C (single isomer, unassigned; (-)) [(−)Bremazocine]" target="mu opioid receptors (Cavia porcellus, UniProt A0ACM8Q262)" category="criterion met"
compound="O=C1/C(=C/c2ccccc2)C[C@@]2(O)[C@H]3Cc4ccc(O)c5c4[C@@]2(CCN3CC2CC2)[C@H]1O5 [BNTX]" target="mu opioid receptors (Cavia porcellus, UniProt A0ACM8Q262)" category="criterion not met"
compound="CCC12CCN(CC3(O)CC3)C(Cc3ccc(O)cc31)C2(C)C (single isomer, unassigned; (+)) [(+)Bremazocine]" target="mu opioid receptors (Cavia porcellus, UniProt A0ACM8Q262)" category="criterion met"
